tested on: LNA (2′-O,4-C-methylene); test: Epitope mapping solid phase immunoassay (ELISA); assay type: binding; settings: signal-to-noise (S/N) class
property-measured: Reactivity to LNA (2′-O,4-C-methylene)

# molecule, property-measured, measured-result
rows = [
    ("clone 1.5.13: anti-LNA monoclonal hybridoma antibody, VH SEQ ID NO: 81, VL SEQ ID NO: 89 (antibody, listed as Mus musculus, V domains shown) VH: QVQLKESGPGLVAPSQSLSITCTISGFSLTTYGVHWVRQPPGMGLEWLVVIWGDGSTTYNSALRSRLSISKDNSRSQVFLKMNSLQTDDTAMYYCARHGGRYALDYWGQGTSVTVSS VL: DIVMTQSPATLSVTPGDRVSLSCRASQSIGGYLHWYQQKSHESPRLLIKYASQSMSGIPPRFSGSGSGSDFTLSINSVAPEDVGVYYCQAGHTFPLTFGAGTKL", "Reactivity to LNA (2′-O,4-C-methylene)", "− (−: S/N <2)"),
    ("clone 1.7.15: anti-LNA monoclonal hybridoma antibody, VH SEQ ID NO: 12, VL SEQ ID NO: 21 (antibody, listed as Mus musculus, V domains shown) VH: QVQLKQSGPSFVQPSQSLSITCTVSGFSLTTYGVHWVRQSPGKGLEWLGVIWRSGGTDYNAAFMSRLSITKDNSKSQVFFKMNSLQTDDTAIYYCTNLYYWGQGTTLTVSS VL: DIVMTQATFSNPVTLGTSVSISCRSSKSLLRSNGITYLYWYLQKPGQSPQLLIYQMSNLASGVPDRFSSSGSGTDFTLRISRVEAEDVGVYYCGQNLELPYTFGSGTKVEIK", "Reactivity to LNA (2′-O,4-C-methylene)", "− (−: S/N <2)"),
]
